Cited source: the supplement of paper PMC9135407

# reported scaled lipid accumulation score; entries follow
system: primary human hepatic stellate cells (donor 1); experiment: scaled lipid accumulation score (0 = DMSO-like, 1 = nortriptyline-like); higher = stronger HSC inactivation (lipid re-accumulation), active = hit call of the paper; conditions: library stock concentration: 10 mM; 48 h
Where a name gives a salt, the structure may show the parent alone. In all, about 5,800 compounds went through this assay and about 620 (11%) showed activity. This excerpt belongs to a sample that is enriched for actives.

Examples with answers:
COMPOUND	scaled lipid accumulation score
O=C(Nc1cccc2cccnc12)c1ccc(N2C(=O)C3C4C=CC(C4)C3C2=O)cc1 (stereo not drawn) [IWR-1-endo]	≤ -0.001 (inactive)
Nc1ncnc2c1nc(Br)n2[C@@H]1O[C@@H]2COP(=O)(O)O[C@H]2[C@H]1O [8-Bromo-cAMP, sodium salt]	≤ -0.006 (inactive)
NC[C@H]1c(c2C[C@@H]([C@]3(C4)CC(CC45)CC(C5)C3)O1)ccc(O)c2O.Cl	1.19 (active)
CNc1nc(Nc2cnn(C3CCN(C4COC4)CC3F)c2Cl)ncc1C(F)(F)F (stereo not drawn)	≤ 0 (inactive)

// below: scaled lipid accumulation score requested for another compound
Reported scaled lipid accumulation score of CCCCC(F)(F)[C@@]1(O)CC[C@H]2[C@@H](CC(=O)[C@@H]2CCCCCCC(=O)O)O1 [Lubiprostone] : ≤ 0 (inactive)

====

test system: primary human hepatic stellate cells (donor 1); assay: scaled lipid accumulation score (0 = DMSO-like, 1 = nortriptyline-like); higher = stronger HSC inactivation (lipid re-accumulation), active = hit call of the paper; conditions: library stock concentration: 3.33 mM; 48 h
Out of some 5,800 compounds screened, about 620 (11%) showed activity. Only a selection was taken, and actives are over-represented in it overall.
In this section, each of the compounds is paired with its reported scaled lipid accumulation score.

Would you please look over these solved cases?
COMPOUND	TEST SYSTEM	scaled lipid accumulation score
COCCCN1CCC(NC(=O)c2cc(Cl)c(N)c3c2OCC3)CC1 [Prucalopride]	primary human hepatic stellate cells (donor 1)	≤ 0 (inactive)
CCNC(=O)c1[nH]nc(-c2cc(Cl)c(O)cc2O)c1-c1ccc(OC)cc1	primary human hepatic stellate cells (donor 1)	0.6 (inactive)
O=C(O)[C@]1(Cc2cccc(Nc3nccs3)n2)CC[C@@H](Oc2cccc(Cl)c2F)CC1	primary human hepatic stellate cells (donor 1)	≤ 0 (inactive)
COCCCN1CCC(NC(=O)c2cc(Cl)c(N)c3c2OCC3)CC1 [Prucalopride Succinat]	primary human hepatic stellate cells (donor 1)	0.028 (inactive)

Sure, the documented scaled lipid accumulation score for `COc1cc(C(C)=O)ccc1OCCCN1CCC(c2noc3cc(F)ccc23)CC1` is 0.045 (inactive)

For C[C@]12C=CC(=O)N[C@@H]1CC[C@@H]1[C@@H]2CC[C@]2(C)[C@@H](C(=O)Nc3cc(C(F)(F)F)ccc3C(F)(F)F)CC[C@@H]12 [Dutasteride] the compound record lists scaled lipid accumulation score as ≤ 0 (inactive)

The measured scaled lipid accumulation score associated with CCCC(=O)O[C@]1(C(=O)COC(C)=O)CC[C@H]2[C@@H]3C[C@H](F)C4=CC(=O)C=C[C@]4(C)[C@@]3(F)[C@@H](O)C[C@@]21C [Difluprednate] reads ≤ 0 (inactive)

Recorded scaled lipid accumulation score (compound O=C(Nc1ccc(-c2cn[nH]c2)cc1)C1COc2ccccc2O1 (stereo not drawn) ): ≤ 0 (inactive)

====

test system: primary human hepatic stellate cells (donor 1); assay: scaled lipid accumulation score (0 = DMSO-like, 1 = nortriptyline-like); higher = stronger HSC inactivation (lipid re-accumulation), active = hit call of the paper; conditions: library stock concentration: 10 mM; 48 h
Where a name gives a salt, the structure may show the parent alone. Screen size: about 5,800 compounds; about 620 (11%) showed activity. This is one part of a sample in which actives are shown more often than they occur.
REPORTED PROPERTY: scaled lipid accumulation score

Example molecules with recorded scaled lipid accumulation score:
MOLECULE	scaled lipid accumulation score
Cc1cc(NC(=O)Nc2ccc3c(ccn3C)c2)sn1	0.129 (inactive)
CC(CN1c2ccccc2Sc2ccccc21)N(C)C.Cl (stereo not drawn) [Promethazine hydrochloride]	0.888 (active)
CN(C)CCCN1c2ccccc2Sc2ccc(Cl)cc21 [Chlorpromazine hydrochloride]	0.259 (inactive)
Nc1nc(Nc2ccccc2)nc2c1ncn2[C@@H]1O[C@H](CO)[C@@H](O)[C@H]1O	≤ 0 (inactive)
CN1CCN(c2ccc3nc(-c4c(N)c5c(F)cccc5[nH]c4=O)[nH]c3c2)CC1	1.08 (active)

Per the records, this molecule ( CC(C)c1cc(-c2n[nH]c(=O)n2-c2ccc3c(ccn3C)c2)c(O)cc1O [Ganetespib] ) has scaled lipid accumulation score equal to 0.885 (active)

scaled lipid accumulation score in this record for CC(C)c1cc(-c2n[nH]c(=O)n2-c2ccc3c(ccn3C)c2)c(O)cc1O [Ganetespib (STA-9090)] : 0.649 (inactive)

Kindly note the recorded scaled lipid accumulation score for `O=C(Nc1ccc2c(c1)CCN(Cc1ncn[nH]1)C2)c1ccccc1-c1ccc(C(F)(F)F)cc1` , which is ≤ 0 (inactive)

get_value(item= `CN1CCN(C(=O)c2nc3ccc(Cl)cc3[nH]2)CC1` , readout=scaled lipid accumulation score) returns 0.076 (inactive)

Looking up C[N+](C)(C)CCO.[Cl-] [Choline chloride] , I see its scaled lipid accumulation score listed as ≤ -0.027 (inactive)

====

// reported scaled lipid accumulation score for each item listed
system: primary human hepatic stellate cells (donor 1); assay: scaled lipid accumulation score (0 = DMSO-like, 1 = nortriptyline-like); higher = stronger HSC inactivation (lipid re-accumulation), active = hit call of the paper; settings: library stock concentration: 1 mM; 48 h
Where a name gives a salt, the structure may show the parent alone. Hit rate of the full screen: of about 5,800 compounds, about 620 (11%) showed activity. Only a selection was taken, and actives are over-represented in it overall.

Check out these entries, answers already filled in.
COMPOUND	scaled lipid accumulation score
CCCCCCCC(=O)OC[C@H](CO)OC(=O)CCCCCCC [1,2-Dioctanoyl-SN-glycerol]	≤ -0.021 (inactive)
CN1C(=O)C(c2c[nH]c3ccccc23)=C(c2c[nH]c3ccccc23)C1=O [Bisindolylmaleimide V]	≤ 0 (inactive)
O=C1NC(=O)/C(=C/c2ccc(-c3ccc(F)cc3O)o2)S1	0.034 (inactive)
CCCCC[C@H](O)/C=C/[C@H]1C(=O)C[C@H](O)[C@@H]1C/C=C\CCCC(=O)OCC(O)CO (some centres not stated) [Prostaglandin D2-1-glyceryl ester]	≤ 0 (inactive)
CCCCCCCCCCCCCCC(F)C(=O)O (configuration not stated)	≤ 0 (inactive)

According to the records, this compound N=C(N)SCCc1cccc(CCSC(=N)N)c1 [1,3-PBIT (dihydrobromide)] displays scaled lipid accumulation score of ≤ 0 (inactive)

Note to self: scaled lipid accumulation score recorded for CCCCC[C@H](O)/C=C/[C@H]1[C@H](O)CC(=O)[C@@H]1C/C=C\CCCC(=O)OCC(O)CO (some centres not stated) [Prostaglandin E2-1-glyceryl ester] was ≤ 0 (inactive)

Entry under test: NC(=S)NCCC[C@H](N)C(=O)O [L-Thiocitrulline (hydrochloride)] . Its scaled lipid accumulation score was 0.048 (inactive)

So for `CCCCC/C=C\C/C=C\CCCCCCCC(=O)OCC` , the logged scaled lipid accumulation score turned out to be ≤ 0 (inactive)

The compound listed as N=C(N)SCCc1ccc(CCSC(=N)N)cc1 [1,4-PBIT (dihydrobromide)] has a reported scaled lipid accumulation score of 0.049 (inactive)

====

system: primary human hepatic stellate cells (donor 1); assay: scaled lipid accumulation score (0 = DMSO-like, 1 = nortriptyline-like); higher = stronger HSC inactivation (lipid re-accumulation), active = hit call of the paper; conditions: 48 h
Where a name gives a salt, the structure may show the parent alone. Screen size: about 5,800 compounds; about 620 (11%) showed activity.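 Rule for the calls: active = score above a cut-off or among the top three wells of a plate; in these data no inactive exceeds 0.85.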 For the sample, actives were picked, then their nearest neighbours and some compounds at random.
Please state which outcome applies, choosing from class 1 for active, class 0 for inactive

MOLECULE	CATEGORY LABEL
OCc1cc(C(O)CNCCCCCCOCCCCc2ccccc2)ccc1O (configuration not stated)	class 0
c1ccc2c3c([nH]c2c1)C1C2CCC(C4CCCNC42)N1CC3 (configuration not stated) [Nitrarine dihydrochloride]	class 0
CC1(C)S[C@@H]2[C@H](NC(=O)[C@H](N)c3ccc(O)cc3)C(=O)N2[C@H]1C(=O)O	class 0
C(/c1c2cccc1)(=C/CCN(C)C)\c3c(cccc3)C=C2.Cl [Cyclobenzaprine hydrochloride]	class 1
COc1cc(CNC(=O)CCCC/C=C/C(C)C)ccc1O	class 0

Input line: Hey, what did the test say about CC(CCc1ccccc1)NCC(O)c1ccc(O)c(C(N)=O)c1 (configuration not stated) [Labetalol hydrochloride] ?
Output line: class 0

Input line: Hey, what did the test say about C[C@H]1[C@H](C)CC[C@]2(C(=O)O[C@@H]3O[C@H](CO[C@@H]4O[C@H](CO)[C@@H](O[C@@H]5O[C@H](C)[C@H](O)[C@@H](O)[C@H]5O)[C@H](O)[C@H]4O)[C@@H](O)[C@H](O)[C@H]3O)CC[C@]3(C)C(=CC[C@@H]4[C@@]5(C)C[C@@H](O)[C@H](O)[C@@](C)(CO)[C@@H]5CC[C@]43C)[C@H]12 [Asiaticoside] ?
Output line: class 0

Input line: For this molecule, state the assay outcome: `C=C1C[C@]23C[C@@]1(O)CC[C@H]2[C@@]12C=C[C@H](O)[C@@](C)(C(=O)O1)[C@H]2[C@@H]3C(=O)O`
Output line: class 0

Input line: Identify the outcome logged in this assay for the molecule shown: `C=C(NC(=O)C(=C)NC(=O)c1csc(C2=N[C@@H]3c4csc(n4)[C@H]4NC(=O)c5csc(n5)[C@H]([C@](C)(O)[C@@H](C)O)NC(=O)[C@H]5CSC(=N5)/C(=C/C)NC(=O)[C@H]([C@@H](C)O)NC(=O)c5csc(n5)[C@]3(CC2)NC(=O)[C@H](C)NC(=O)C(=C)NC(=O)[C@H](C)NC(=O)[C@H]([C@@H](C)CC)N[C@@H]2C=Cc3c([C@H](C)O)cc(nc3[C@H]2O)C(=O)O[C@@H]4C)n1)C(N)=O`
Output line: class 1

Input line: Record lookup: outcome of this test for O=C(c1ccccc1)c1ccc2n1CCC2C(=O)O (configuration not stated) ?
Output line: class 0

Input line: Hi, do you know how C=CCc1ccccc1OCC(O)CNC(C)C (configuration not stated) [Alprenolol hydrochloride] came out in this test?
Output line: class 0

Input line: For CC(=O)N1CCN(c2ccc(OCC3COC(Cn4ccnc4)(c4ccc(Cl)cc4Cl)O3)cc2)CC1 (configuration not stated) , what call appears in the results of this test?
Output line: class 0
